# testTarget: Endothelial PAS domain-containing protein 1 (Homo sapiens) (UniProt Q99814)
# testMethodNotes: HIF-2a and HIF-1a reporter inhibition panel, dose response, selectivity assay for HIF-2a inhibitor project, cell-based, luminescence (AID 651581)
# assaySetup: HIF-2a PANC, run 1
Kindly supply the reported IC50 values for the records listed here.
Give bare numbers, in µM.

Check out these entries, answers already filled in.
# compoundStructureString, resultUnit, IC50
data = [
    ("CCOC(=O)Cc1csc(NC(=S)NC(=O)c2ccccc2)n1", "µM", 41),
    ("CCOC(=O)NC(=O)COC(=O)CCCSc1nc2ccccc2s1", "µM", 12),
    ("Cc1ccc(-n2nc3ccc(N)cc3n2)c(C)c1", "µM", 1.69),
    ("Cc1c(CCC(=O)O)c(=O)oc2cc3oc4c(c3cc12)CCCC4", "µM", 0.793),
    ("CCc1ccc(S(=O)(=O)ON2C(=O)c3ccccc3C2=O)cc1", "µM", 53.4),
]

Record IC50 for all entries; do not skip any.
1. COc1ccc2nc(-c3ccc(N)cc3)[nH]c2c1
2. O=C(CCCSc1nc2ccccc2s1)NC1=NCCS1

1. 5.51
2. 7.27

Give measured IC50 for Cn1c(/C=C/c2ccc(Cl)cc2)c([N+](=O)[O-])c(=O)n(C)c1=O (Endothelial PAS domain-containing protein 1 (Homo sapiens) (UniProt Q99814)).
29.4
